experimental-protocol: Excitation and fluorescence emission wavelength measurement
Type: physicochemical
Set-up: unit not given here
particulars: aqueous solution: 10 mg/mL solution in DMSO diluted 500-fold with purified water
measured-property: Stokes shift (λem − λex)
Please respond with just the number, no unit label.

The following compounds have reported results that may help.
Look up Stokes shift (λem − λex) for this compound: CCN1C(=O)/C(=c2\s/c(=C/c3cc(Br)c4c(c3)C3CCCC3N4c3ccc(Br)cc3)c(=O)n2CC(=O)O)SC1=S (stereo not drawn) [Dye 59]
112

Look up Stokes shift (λem − λex) for this compound: COc1ccc(N2c3ccc(/C=C/C4=[N+](CCC(=O)O)c5ccccc5C4(C)C)cc3C3CCCC32)cc1 (stereo not drawn) [Dye 76]
79

Let us examine a further case.
Look up Stokes shift (λem − λex) for this compound: CC1=NN(c2ccc(C(=O)O)cc2)C(=O)/C1=C\c1ccc2c(c1)C1CCCC1N2Cc1ccccc1 (stereo not drawn) [Dye 44]
48

###

experimental-protocol: Excitation and fluorescence emission wavelength measurement
Assay type: physicochemical
particulars: aqueous solution: 10 mg/mL solution in DMSO diluted 500-fold with purified water
measured-property: Excitation wavelength λex (nm)
Numbers only here, please. The scale is nm.

The following molecules have reported results that may help.
Look up Excitation wavelength λex for this molecule: COc1ccc(N2c3ccc(/C=C4/SC(=S)N(CCC(=O)O)C4=O)cc3C3CCCC32)cc1 (centres unmarked)
564

Look up Excitation wavelength λex for this molecule: O=C(O)C[n+]1c(/C=C/c2cc(Br)c3c(c2)C2CCCC2N3c2ccccc2)sc2ccccc21 (centres unmarked)
545

Look up Excitation wavelength λex for this molecule: C=CCN1C(=O)/C(=c2\s/c(=C/c3ccc4c(c3)C3CCCC3N4c3ccc(OC)cc3)c(=O)n2CC(=O)O)SC1=S (centres unmarked)
530

Further cases:
Look up Excitation wavelength λex for this molecule: C=CCN1C(=O)/C(=c2\s/c(=C/c3ccc4c(c3)C3CCCC3N4c3ccccc3)c(=O)n2CC(=O)O)SC1=S (centres unmarked)
510

Look up Excitation wavelength λex for this molecule: COc1ccc(N2c3ccc(/C=C/c4sc5ccccc5[n+]4CCC(=O)O)cc3C3CCCC32)cc1 (centres unmarked)
583
